Consider the following molecules; for each one, report its viability, T/C.
- Tested on: 556581-035-R-J1 tumor spheroid viability, % test/control;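 also: spheroids exposed to compounds for 7 days before viability read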
- method: Anticancer human tumor 556581-035-R-J1 patient-derived ovarian carcinoma cell line growth inhibition
- conditions used: second compound 31.6 µM; first compound 0.1 µM; active compounds read low; spheroids with HUVEC and MSC
One number for each entry, in %.

Worked cases, viability, T/C given:
[[record]]
molecule = "CC(C)n1c(=O)n(C)c2cnc3cc(F)c(-c4ccc(OCCCN5CCCCC5)nc4)cc3c21 + Cn1nnc2c(C(N)=O)ncn2c1=O"
property_name = "viability, T/C"
endpoint_value = 106

[[record]]
molecule = "COc1ccc([C@@H](O)c2cc(-c3ncnc4cc(N5CCOCC5)ccc34)c(F)cc2Cl)nn1 + Cn1nnc2c(C(N)=O)ncn2c1=O"
property_name = "viability, T/C"
endpoint_value = 123


Count: 4. Required value per item: viability, T/C.
1. CC1COCCN1c1cc(-c2ccnn2C)c2ccnc(-c3ccn[nH]3)c2n1 (stereo unspecified) + Cn1nnc2c(C(N)=O)ncn2c1=O
2. COc1cc(C)[nH]c(=O)c1CN1CCc2c(Cl)cc(C(OC)C3COC3)c(Cl)c2C1=O (stereo unspecified) + Cn1nnc2c(C(N)=O)ncn2c1=O
3. Cc1cc(C)c(CNC(=O)c2cc(-c3ccc(CN4CCOCC4)cc3)cc3c2cnn3C2CCCC2)c(=O)[nH]1 + Cn1nnc2c(C(N)=O)ncn2c1=O
4. [2H]c1nc(C)nc([2H])c1-c1cc(NC[C@@H](C)c2cccc3c(C(=O)NC)ccnc23)ncn1 + Cn1nnc2c(C(N)=O)ncn2c1=O

1: 71.6; 2: 118; 3: 105; 4: 109

Where these numbers come from: PubChem BioAssay AID1845199
